Reported GI50 values follow for various compounds
- System: A549
- assay.method.text: NCI tumour cell line growth inhibition, 48 h
Activity calls are given as the source filed them. Rule as the data show it: active = GI50 up to about 1.1 µM and inactive = higher.

# molecule, readout.value
measured = [
    ("CC1(C)CC(=O)C(CCC(=O)/C=C/c2ccccc2)C(=O)C1", "> 100 µM (inactive)"),
]

## Task Consider the compound CC(C)S(=O)(=O)n1c(N)nc2ccc(/C(=N/O)c3ccccc3)cc21 . State its measured GI50.
## Result 14.2 µM (inactive)

## Task Consider the compound Cc1ccc2c3c1O[C@H]1c4[nH]c5ccccc5c4C[C@@]4(O)[C@@H](C2)N(C)CC[C@]314 . State its measured GI50.
## Result 17 µM (inactive)

## Task Consider the compound CN(C)c1nc(Oc2nc(N(C)C)nc(N(C)C)n2)nc(N(C)C)n1 . State its measured GI50.
## Result 67 µM (inactive)
